Target: GR (pBIND-GR, GR-LBD/GAL4 DBD) (Homo sapiens)
Sequence (P04150 500-777): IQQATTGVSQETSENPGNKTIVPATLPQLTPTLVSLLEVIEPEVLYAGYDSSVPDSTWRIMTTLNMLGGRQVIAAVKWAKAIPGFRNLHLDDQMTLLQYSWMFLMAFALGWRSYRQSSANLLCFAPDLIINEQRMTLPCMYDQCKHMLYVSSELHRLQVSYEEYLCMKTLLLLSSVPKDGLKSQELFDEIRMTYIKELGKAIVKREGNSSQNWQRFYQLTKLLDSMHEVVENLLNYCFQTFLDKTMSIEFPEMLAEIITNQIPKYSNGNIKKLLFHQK
Readout Name: EC50 (µM)
Output spec: scalar in µM, unitless text.

Documented EC50 of C[C@]12CCC(=O)C=C1CC[C@@H]1[C@@H]2[C@@H](O)C[C@]2(C=O)[C@@H](C(=O)CO)CC[C@@H]12 : 21

Sourced from paper PMC3115594
